Values from patent EP4644396A1

Target: human TLR7 (Homo sapiens, UniProt Q9NYK1)
Sequence (Q9NYK1 27-1049): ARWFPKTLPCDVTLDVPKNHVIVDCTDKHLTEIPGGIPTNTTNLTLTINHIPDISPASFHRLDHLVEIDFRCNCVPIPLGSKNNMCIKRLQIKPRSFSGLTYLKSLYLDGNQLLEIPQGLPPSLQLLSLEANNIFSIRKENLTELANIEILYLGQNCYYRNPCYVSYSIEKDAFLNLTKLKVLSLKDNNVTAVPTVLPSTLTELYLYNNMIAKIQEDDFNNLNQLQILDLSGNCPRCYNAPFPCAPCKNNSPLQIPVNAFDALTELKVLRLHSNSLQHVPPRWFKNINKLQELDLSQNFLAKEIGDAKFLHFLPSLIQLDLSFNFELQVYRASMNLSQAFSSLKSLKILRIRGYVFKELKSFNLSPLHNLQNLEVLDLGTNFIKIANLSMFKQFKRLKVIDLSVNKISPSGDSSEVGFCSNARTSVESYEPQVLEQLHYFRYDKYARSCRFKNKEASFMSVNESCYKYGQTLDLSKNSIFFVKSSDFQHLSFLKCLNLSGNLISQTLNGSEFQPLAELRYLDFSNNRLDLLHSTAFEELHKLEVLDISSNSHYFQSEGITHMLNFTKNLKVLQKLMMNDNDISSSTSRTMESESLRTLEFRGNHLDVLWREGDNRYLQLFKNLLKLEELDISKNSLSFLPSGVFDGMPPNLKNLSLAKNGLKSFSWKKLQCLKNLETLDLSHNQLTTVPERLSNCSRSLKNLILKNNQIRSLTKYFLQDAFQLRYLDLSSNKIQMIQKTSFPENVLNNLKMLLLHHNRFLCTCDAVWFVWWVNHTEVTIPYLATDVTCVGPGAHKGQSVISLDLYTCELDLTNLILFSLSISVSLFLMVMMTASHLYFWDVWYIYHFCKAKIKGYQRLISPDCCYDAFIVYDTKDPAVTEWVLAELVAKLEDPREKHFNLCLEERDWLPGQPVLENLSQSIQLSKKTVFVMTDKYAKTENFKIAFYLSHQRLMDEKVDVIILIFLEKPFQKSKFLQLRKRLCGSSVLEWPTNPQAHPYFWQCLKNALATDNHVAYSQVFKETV
Test: HEK-Blue hTLR7 SEAP reporter gene inhibition assay
Format: cell-based
Conditions: hTLR7 HEK-Blue cells, TLR7 ligand Gardiquimod 10 µM, 20 hours, SEAP by Quanti-blue; class symbols; read-out: HEK-Blue hTLR7 IC50
pIC50: −log10 of the molar value.
Quick reference for pIC50 among some compounds
value_type: pIC50

| structure | measured_value |
| --- | --- |
| CC(C)N1CCc2nn3c(c2C1)CN(c1ccc(C#N)n2ncc(F)c12)C[C@H]3C | > 7.30 |
| C[C@@H]1CN(c2ccc(C#N)n3ncc(F)c23)Cc2c3c(nn21)CNC(C)(C)C3 | > 7.30 |
| C[C@@H]1CN(c2ccc(C#N)n3ncc(F)c23)Cc2c3c(nn21)CN(CC1(N)COC1)[C@@H](C)C3 | < 7.30 |
